Target: GABAa receptor
Test: GABAa receptor binding assay: displacement of [3H]-Flumazenil (RO15-1788) from rat cortical tissue
Conditions: rat cortical tissue homogenate, 0.5 nM 3H-RO15-1788, 30 min at 4° C., pH 7.4
Method: The pharmaceutical utility of compounds of this invention are indicated by the following assay for GABAa receptor activity. Assays are carried out as described in Thomas and Tallman (J. Bio. Chem. 156: 9838-9842 , J. Neurosci. 3: 433-440, 1983). Rat cortical tissue is dissected and homogenized in 25 volumes (w/v) of 0.05M Tris HCl buffer (pH 7.4 at 4° C.). The tissue homogenate is centrifuged in the cold (4° ) at 20,000×g for 20'. […]
Reported IC50 by item:
Report the value in nM with no unit label.

INSERT INTO results (smiles_representation, measured_target, units, reported_value) VALUES
  ('COc1cccc(-c2cc3c4c([nH]c3cn2)CCC2(C4)OCCO2)c1', 'GABAa receptor', 'nM', 120);

*Q* Form field: IC50 recorded for `Fc1ccccc1-c1cc2c3c([nH]c2cn1)CCCC3` with GABAa receptor (enter value)
*A* 550

*Q* Try this compound next: `Fc1ccccc1-c1cc2c3c([nH]c2cn1)CCN(Cc1ccccc1)C3`
*A* 130

*Q* Try this compound next: `COc1cccc(-c2cc3c4c([nH]c3cn2)CCN(Cc2ccccc2)C4)c1`
*A* 240
